- System: NCI/ADR-RES ovarian
- Method summary: NCI-60 one-dose screen, 48 h (100 = growth as untreated, 0 = no growth, -100 = all killed)
- Reported conditions: 10 µM unless noted
This is part of a sample that, as a whole, favours compounds with a hit. Of some 83,000 tested, about 20% had one in any assay. The source made the active and inactive calls. The calls were made as follows: active = growth percent below 10; inactive = the rest.
Readout kind: growth

| Compound structure | growth |
| --- | --- |
| CC/C=C\C[C@H](O)C/C=C1/C(=O)C=C[C@@H]1C/C=C\CCCC(=O)O | 78.3% (inactive) |
| Cc1ccccc1Nc1cc(O)c2c(=O)cc(-c3ccccc3)oc2c1 | 4.9% (active) |

For every listed record, write down its growth.
1. CCCCCCCCCCCCCOC(=O)c1c(C)[nH]c(/C=C2\N=C(c3ccc[nH]3)C=C2OC)c1C
2. COC(=O)c1ccc(NC(=O)Nc2ccc(C(=O)OC)cc2)cc1

output:
1: 22.5% (inactive); 2: 108% (inactive)
